Let's look at some compounds and their measured IC50.
assay.explanation: Cytotoxicity against lymphocytes in Homo sapiens (human) whole blood assessed as inhibition of cell viability after 24 to 96 hr by neutral red uptake assay
Format: tissue-based
applied.conditions: Lymphocyte
Form entry: value (µM) — number only.

Recorded results for 3 compounds are shown here.
smiles	IC50 / µM
O=C1/C(=N\Nc2ccc(S(=O)(=O)Nc3ncccn3)cc2)SC(=S)N1Cc1nc2ccccc2[nH]1	30.6
COc1ccc(OC)c(/C=C2\SC(=S)N(Cc3nc4ccccc4[nH]3)C2=O)c1	39
O=C1/C(=C/c2ccc([N+](=O)[O-])cc2)SC(=S)N1Cc1nc2ccccc2[nH]1	39.5

Please list IC50 recorded for the compound `CN(C)c1ccc(/C=C2\SC(=S)N(Cc3nc4ccccc4[nH]3)C2=O)cc1`
14.8

Please list IC50 recorded for the compound `Cc1ccc(/N=C2\S/C(=C\c3ccc(Cl)cc3)C(=O)N2Cc2nc3ccccc3[nH]2)cc1`
19.7

* * *

System: HCT-116
assay.explanation: Anticancer activity against Homo sapiens (human) HCT116 cells assessed as cell growth at 100 uM after 48 hr by SRB assay
Assay type: functional, cell-based
applied.conditions: HCT-116, 48 h
result.type: pIC50
The quantity pIC50 is defined as the negative base-10 logarithm of the molar concentration.

Please list pIC50 recorded for the compound `O=C1Nc2ccccc2/C1=C1/S/C(=N\c2ccccc2)N(Cc2nc3ccccc3[nH]2)C1=O`
4.79

* * *

assay.explanation: Cytotoxicity against lymphocytes in Homo sapiens (human) whole blood assessed as inhibition of cell viability after 24 to 96 hr by neutral red uptake assay
Assay type: tissue-based
applied.conditions: Lymphocyte
Could you mark each record criterion met if its IC50 falls strictly under 30 µM, and criterion not met if it equals or exceeds it?

See these solved cases before continuing.
smiles	group.label
O=C1Nc2ccccc2/C1=C1/S/C(=N\c2ccccc2)N(Cc2nc3ccccc3[nH]2)C1=O	criterion met
O=C1/C(=C\c2ccc(Cl)cc2)S/C(=N\c2ccccc2)N1Cc1nc2ccccc2[nH]1	criterion not met
CC(=O)NS(=O)(=O)c1ccc(N/N=C2/SC(=S)N(Cc3nc4ccccc4[nH]3)C2=O)cc1	criterion met

Lab note: confirm whether the reported IC50 for this compound is below 30 µM, equality not counting. compound: `COc1ccc(/C=C2\SC(=S)N(Cc3nc4ccccc4[nH]3)C2=O)cc1`
criterion not met

Lab note: confirm whether the reported IC50 for this compound is below 30 µM, equality not counting. compound: `O=C1Nc2ccccc2/C1=C1/SC(=S)N(Cc2nc3ccccc3[nH]2)C1=O`
criterion not met

* * *

System: MCF7
assay.explanation: Anticancer activity against Homo sapiens (human) MCF7 cells assessed as cell growth at 100 uM after 48 hr by SRB assay
Assay type: functional, cell-based
applied.conditions: MCF7, 48 h, read-out: Activity
result.type: growth at 100 µM (%)
Form entry: value (%) — number only.

Recorded results for 8 compounds are shown here.
smiles	result.type	units.label	value.reported
O=C1/C(=C\c2ccccc2)S/C(=N\c2ccccc2)N1Cc1nc2ccccc2[nH]1	growth at 100 µM	%	-0.69
O=C1/C(=C/C=C/c2ccccc2)SC(=S)N1Cc1nc2ccccc2[nH]1	growth at 100 µM	%	-3.93
COc1ccc(/C=C2/S/C(=N\c3ccccc3)N(Cc3nc4ccccc4[nH]3)C2=O)c(OC)c1	growth at 100 µM	%	-1.19
O=C1/C(=C\c2ccc([N+](=O)[O-])cc2)S/C(=N\c2ccccc2)N1Cc1nc2ccccc2[nH]1	growth at 100 µM	%	-0.79
COc1ccc(OC)c(/C=C2\SC(=S)N(Cc3nc4ccccc4[nH]3)C2=O)c1	growth at 100 µM	%	-2.27
O=C1/C(=C\c2ccccc2Cl)S/C(=N\c2ccccc2)N1Cc1nc2ccccc2[nH]1	growth at 100 µM	%	-1.74
COc1ccc(/C=C2\SC(=S)N(Cc3nc4ccccc4[nH]3)C2=O)cc1	growth at 100 µM	%	-5.75
O=C1/C(=C/c2ccccc2Cl)SC(=S)N1Cc1nc2ccccc2[nH]1	growth at 100 µM	%	-4.32

We now examine a further compound.
Please list growth at 100 µM recorded for the compound `COc1ccc(/C=C2\SC(=S)N(Cc3nc4ccccc4[nH]3)C2=O)c(OC)c1`
0.34
